This collection of values is drawn from patent US5358951A.

System: vasopressor response of angiotensin II
Assay: AII Challenge: antagonism of angiotensin II vasopressor response;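 as to Response Average Change: post-dose Angiotensin II-evoked rise in systolic blood pressure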
Type: in vivo
Conditions: 5 mg/kg P.O.; AII 0.05 mcg/kg IV; 60 min post dose
Experimental: Conscious Male Okamoto-Aoki SHR, 16-20 weeks old, weighing approximately 330 g are purchased from Charles River Labs (Wilmington, Mass.). Conscious rats are restrained in a supine position with elastic tape. The area at the base of the tail is locally anesthetized by subcutaneous infiltration with 2% procaine. […] The cannula is attached to a Statham P23 Db pressure transducer, and pulsatile blood pressure is recorded to 10-15 minutes with a Gould Brush recorder. […]
Listed molecules paired with reported Response Average Change
Reply with just the number (in mmHg).

molecule: CCCCc1nc2ccc([C@@]3(C)C[C@@H]4CCCN4O3)cc2c(=O)n1Cc1ccc(-c2ccccc2-c2nnn[nH]2)cc1 (relative stereo) [Example 58]
Response Average Change (mmHg): 2.5

*Q* State recorded Response Average Change with vasopressor response of angiotensin II, entry CCCCc1nc2ccc(C3(C)CC4c5ccccc5CCN4O3)cc2c(=O)n1Cc1ccc(-c2ccccc2-c2nnn[nH]2)cc1 (stereo not drawn) [Example 64] , no comment.
*A* 18.5

*Q* Provide Response Average Change, system vasopressor response of angiotensin II, entry CCCCc1nc2ccc([C@@H]3C[C@H]4c5ccccc5CCN4O3)cc2c(=O)n1Cc1ccc(-c2ccccc2-c2nnn[nH]2)cc1 (relative stereo) [Example 63]
*A* 30

---

test system: vasopressor response of angiotensin II; experiment: AII Challenge: antagonism of angiotensin II vasopressor response; type: in vivo; conditions: Rattus norvegicus, iv, 4 h, 1 mg/kg i.v.; AII 0.1 mcg/kg IV; 240 min post dose
Structures can show the parent of a compound that is named as a salt.
measurement-label: inhibition in vivo at 1 mg/kg (%)
Output spec: scalar in %, unitless text.

Check out these entries, answers already filled in.
molecule: CCCCc1nc2ccc([C@@]3(c4ccccc4)C[C@@H]4CCCN4O3)cc2c(=O)n1Cc1ccc(-c2ccccc2-c2nnn[nH]2)cc1 (relative stereo) [Example 70]
measurement-label: inhibition in vivo at 1 mg/kg
reported-value: 37

molecule: CCCCc1nc2ccc(C3(CO)CC4CCCN4O3)cc2c(=O)n1Cc1ccc(-c2ccccc2-c2nnn[nH]2)cc1 (stereo not drawn) [Example 80]
measurement-label: inhibition in vivo at 1 mg/kg
reported-value: 55

molecule: CCCCc1nc2ccc([C@@]3(CC)C[C@@H]4CCCN4O3)cc2c(=O)n1Cc1ccc(-c2ccccc2-c2nnn[nH]2)cc1 (relative stereo) [Example 71]
measurement-label: inhibition in vivo at 1 mg/kg
reported-value: 40

molecule: CCCCc1nc2ccc(C3(C(=O)OC)CC4CCCN4O3)cc2c(=O)n1Cc1ccc(-c2ccccc2-c2nnn[nH]2)cc1 (mixture of isomers) [Example 78]
measurement-label: inhibition in vivo at 1 mg/kg
reported-value: 55

molecule: CCCCc1nc2ccc([C@@]3(C)C[C@@H]4CCCN4O3)cc2c(=O)n1Cc1ccc(-c2ccccc2-c2nnn[nH]2)cc1 (relative stereo) [Example 73, sodium salt]
measurement-label: inhibition in vivo at 1 mg/kg
reported-value: 74

*Q* Write down measured inhibition in vivo at 1 mg/kg (vasopressor response of angiotensin II) for this molecule. CCCCc1nc2ccc([C@@]3(C)C[C@@H]4CCC(C)(C)N4O3)cc2c(=O)n1Cc1ccc(-c2ccccc2-c2nnn[nH]2)cc1 (relative stereo) [Example 66]
*A* 68
